Test system: S. aureus COL MRSA
Format: cell-based, Staphylococcus aureus
Hi there, I'd appreciate the recorded MIC S. aureus COL MRSA for every entry that follows.
API: value field is a number in µg/mL; no unit string.

Ask | Item CC[C@H](C)[C@@H]1NC(=O)[C@@H]2CSC(C)C(NC(=O)[C@@H]3CSC(C)C(NC(=O)[C@H](Cc4ccccc4)NC(=O)C4NC(=O)[C@@H](N)CSC4C)C(=O)N[C@@H](CC(C)C)C(=O)N4CCC[C@H]4C(=O)NCC(=O)NCC(=O)NCC(=O)NCC(=O)N[C@@H](C(C)C)C(=O)N3)C(=O)N[C@@H](CC(C)C)C(=O)NC(C(=O)N[C@@H](Cc3c[nH]cn3)C(=O)N[C@@H](CCC(=O)O)C(=O)N2)C(C)SC=CNC1=O (some centres unmarked) [Dha16H] has what recorded MIC S. aureus COL MRSA?
Reply | 64

Ask | Record: C=C1NC(=O)C2NC(=O)[C@H](CC(C)C)NC(=O)C(NC(=O)[C@@H]3CSC(C)C(NC(=O)[C@H](Cc4c[nH]c5ccccc45)NC(=O)C4NC(=O)[C@@H](N)CSC4C)C(=O)N[C@@H](CC(C)C)C(=O)N4CCC[C@H]4C(=O)NCC(=O)NCC(=O)NCC(=O)NCC(=O)N[C@@H](C(C)C)C(=O)N3)C(C)SC[C@H](NC(=O)[C@H](CCC(=O)O)NC1=O)C(=O)N[C@@H]([C@@H](C)CC)C(=O)NC=CSC2C (some centres unmarked)
Reply | 16

Ask | Please give the result for C=C1NC(=O)C2NC(=O)[C@H](CC(C)C)NC(=O)C(NC(=O)[C@@H]3CSC(C)C(NC(=O)[C@H](Cc4ccccc4)NC(=O)C4NC(=O)[C@@H](N)CSC4C)C(=O)N[C@@H](CC(C)C)C(=O)N[C@@H](C)C(=O)NCC(=O)NCC(=O)NCC(=O)NCC(=O)N[C@@H](C(C)C)C(=O)N3)C(C)SC[C@H](NC(=O)[C@H](CCC(=O)O)NC1=O)C(=O)N[C@@H]([C@@H](C)CC)C(=O)NC=CSC2C (some centres unmarked) too.
Reply | 64

Ask | Repeat for the following compound: C=C1NC(=O)C2NC(=O)[C@H](CC(C)C)NC(=O)C(NC(=O)[C@@H]3CSC(C)C(NC(=O)[C@H](Cc4ccccc4)NC(=O)C4NC(=O)[C@@H](N)CSC4C)C(=O)N[C@@H](CC(C)C)C(=O)N4CCC[C@H]4C(=O)NCC(=O)NCC(=O)NCC(=O)NCC(=O)N[C@@H](C(C)C)C(=O)N3)C(C)SC[C@H](NC(=O)[C@H](CCC(=O)O)NC1=O)C(=O)N[C@@H]([C@@H](C)CC)C(=O)NC=CSC2C (some centres unmarked)
Reply | 16

Ask | What do you have for C=C1NC(=O)C2NC(=O)[C@H](CC(C)C)NC(=O)C(NC(=O)[C@@H]3CSC(C)C(NC(=O)[C@H](Cc4ccccc4)NC(=O)C4NC(=O)[C@@H](N)CSC4C)C(=O)N[C@@H](CC(C)C)C(=O)N4CCC[C@H]4C(=O)NCC(=O)N[C@@H](C)C(=O)NCC(=O)NCC(=O)N[C@@H](C(C)C)C(=O)N3)C(C)SC[C@H](NC(=O)[C@H](CCC(=O)O)NC1=O)C(=O)N[C@@H]([C@@H](C)CC)C(=O)NC=CSC2C (some centres unmarked) ?
Reply | 32

---

System: M. luteus 4698
Type: cell-based, Micrococcus luteus
condition-context: 4698
Procedure: A selection of the variants produced in Example 1 above were tested further for activity against a range of bacteria. Minimum inhibitory concentrations (MICs) for all organisms with the exception of Streptococcus pneumoniae were determined by two-fold serial antibiotic dilutions in Mueller-Hinton broth (MHB) supplemented with 50 μg/ml calcium as calcium chloride dihydrate. […]
endpoint-label: MIC M. luteus 4698

Ask | MIC M. luteus 4698 for C=C1NC(=O)C2NC(=O)[C@H](CC(C)C)NC(=O)C(NC(=O)[C@@H]3CSC(C)C(NC(=O)[C@H](Cc4c[nH]c5ccccc45)NC(=O)C4NC(=O)[C@@H](N)CSC4C)C(=O)N[C@@H](CC(C)C)C(=O)N4CCC[C@H]4C(=O)NCC(=O)NCC(=O)NCC(=O)NCC(=O)N[C@@H](C(C)C)C(=O)N3)C(C)SC[C@H](NC(=O)[C@H](CCC(=O)O)NC1=O)C(=O)N[C@@H]([C@@H](C)CC)C(=O)NC=CSC2C (stereo partly drawn) ?
Reply | 0.5 µg/mL

Ask | Same again, this time with C=C1NC(=O)C2NC(=O)[C@H](CC(C)C)NC(=O)C(NC(=O)[C@@H]3CSC(C)C(NC(=O)[C@H](Cc4ccccc4)NC(=O)C4NC(=O)[C@@H](N)CSC4C)C(=O)N[C@@H](CC(C)C)C(=O)N4CCC[C@H]4C(=O)NCC(=O)N[C@@H](C)C(=O)NCC(=O)NCC(=O)N[C@@H](C(C)C)C(=O)N3)C(C)SC[C@H](NC(=O)[C@H](CCC(=O)O)NC1=O)C(=O)N[C@@H]([C@@H](C)CC)C(=O)NC=CSC2C (stereo partly drawn)
Reply | 4 µg/mL

Ask | // repeat for C=C1NC(=O)C2NC(=O)[C@H](CC(C)C)NC(=O)C(NC(=O)[C@@H]3CSC(C)C(NC(=O)[C@H](Cc4ccccc4)NC(=O)C4NC(=O)[C@@H](N)CSC4C)C(=O)N[C@@H](CC(C)C)C(=O)N[C@@H](C)C(=O)NCC(=O)NCC(=O)NCC(=O)NCC(=O)N[C@@H](C(C)C)C(=O)N3)C(C)SC[C@H](NC(=O)[C@H](CCC(=O)O)NC1=O)C(=O)N[C@@H]([C@@H](C)CC)C(=O)NC=CSC2C (stereo partly drawn) and report
Reply | 4 µg/mL

---

Tested on: M. luteus 4698
Format: cell-based, Micrococcus luteus
condition-context: 4698
Task for the reader: assign each of the following compounds its reported MIC M. luteus 4698.
Report the figure in µg/mL without appending any unit label.

Ask | Write down the reported MIC M. luteus 4698 of CC[C@H](C)[C@@H]1NC(=O)[C@@H]2CSC(C)C(NC(=O)[C@@H]3CSC(C)C(NC(=O)[C@H](Cc4ccccc4)NC(=O)C4NC(=O)[C@@H](N)CSC4C)C(=O)N[C@@H](CC(C)C)C(=O)N4CCC[C@H]4C(=O)NCC(=O)NCC(=O)NCC(=O)NCC(=O)N[C@@H](C(C)C)C(=O)N3)C(=O)N[C@@H](CC(C)C)C(=O)NC(C(=O)N[C@@H](Cc3c[nH]cn3)C(=O)N[C@@H](CCC(=O)O)C(=O)N2)C(C)SC=CNC1=O (some centres unmarked) [Dha16H] , test system: M. luteus 4698.
Reply | 4

Ask | Can you handle C=C1NC(=O)C2NC(=O)[C@H](CC(C)C)NC(=O)C(NC(=O)[C@@H]3CSC(C)C(NC(=O)[C@H](Cc4ccccc4)NC(=O)C4NC(=O)[C@@H](N)CSC4C)C(=O)N[C@@H](CC(C)C)C(=O)N4CCC[C@H]4C(=O)NCC(=O)NCC(=O)NCC(=O)NCC(=O)N[C@@H](C(C)C)C(=O)N3)C(C)SC[C@H](NC(=O)[C@H](CCC(=O)O)NC1=O)C(=O)N[C@@H]([C@@H](C)CC)C(=O)NC=CSC2C (some centres unmarked) [Mersacidin, mersacidin] next?
Reply | 0.5

---

Tested on: E. faecalis 29212
run-description: MIC, two-fold serial dilution in broth
Type: cell-based, Enterococcus faecalis
condition-context: Table 8A; MHB + 50 μg/ml calcium; duplicate
Square brackets hold non-standard residues; d marks the D form. Ends that are not written are not given here. Dha = C=C(N)C(=O)O
Record form. Attribute: MIC E. faecalis 29212. Fill in for each entry.

Ask | # lookup: MIC E. faecalis 29212 of G7A: mersacidin variant (CTFTLPAGGGVCTLT[Dha]ECIC; thioether (positions not given here); not fully specified; UniProt P43683 49-68, looked up, variant G7A)
Reply | >64, >64 μg/ml

Ask | Also, G9R: mersacidin variant (CTFTLPGGRGVCTLT[Dha]ECIC; thioether (positions not given here); not fully specified; UniProt P43683 49-68, looked up, variant G9R) please.
Reply | >64, >64 μg/ml

Ask | // next record G7N: mersacidin variant (CTFTLPNGGGVCTLT[Dha]ECIC; thioether (positions not given here); not fully specified; UniProt P43683 49-68, looked up, variant G7N)
Reply | >64, >64 μg/ml

Ask | Another: G9S: mersacidin variant (CTFTLPGGSGVCTLT[Dha]ECIC; thioether (positions not given here); not fully specified; UniProt P43683 49-68, looked up, variant G9S)
Reply | >64, >64 μg/ml

Ask | Queued: G8N: mersacidin variant (CTFTLPGNGGVCTLT[Dha]ECIC; thioether (positions not given here); not fully specified; UniProt P43683 49-68, looked up, variant G8N)
Reply | >64, >64 μg/ml

Ask | Then what about the substance G8Q: mersacidin variant (CTFTLPGQGGVCTLT[Dha]ECIC; thioether (positions not given here); not fully specified; UniProt P43683 49-68, looked up, variant G8Q) ?
Reply | >64, >64 μg/ml

Ask | Try the substance G10V: mersacidin variant (CTFTLPGGGVVCTLT[Dha]ECIC; thioether (positions not given here); not fully specified; UniProt P43683 49-68, looked up, variant G10V)
Reply | >64, >64 μg/ml

Ask | Please give the result for G10N: mersacidin variant (CTFTLPGGGNVCTLT[Dha]ECIC; thioether (positions not given here); not fully specified; UniProt P43683 49-68, looked up, variant G10N) too.
Reply | >64, >64 μg/ml

Ask | Thanks! And G9H: mersacidin variant (CTFTLPGGHGVCTLT[Dha]ECIC; thioether (positions not given here); not fully specified; UniProt P43683 49-68, looked up, variant G9H) ?
Reply | >64, >64 μg/ml
